Values were extracted from patent US20240270821A1.

# Measured target: hGcgR (Homo sapiens)
# Sequence (P47871 26-477): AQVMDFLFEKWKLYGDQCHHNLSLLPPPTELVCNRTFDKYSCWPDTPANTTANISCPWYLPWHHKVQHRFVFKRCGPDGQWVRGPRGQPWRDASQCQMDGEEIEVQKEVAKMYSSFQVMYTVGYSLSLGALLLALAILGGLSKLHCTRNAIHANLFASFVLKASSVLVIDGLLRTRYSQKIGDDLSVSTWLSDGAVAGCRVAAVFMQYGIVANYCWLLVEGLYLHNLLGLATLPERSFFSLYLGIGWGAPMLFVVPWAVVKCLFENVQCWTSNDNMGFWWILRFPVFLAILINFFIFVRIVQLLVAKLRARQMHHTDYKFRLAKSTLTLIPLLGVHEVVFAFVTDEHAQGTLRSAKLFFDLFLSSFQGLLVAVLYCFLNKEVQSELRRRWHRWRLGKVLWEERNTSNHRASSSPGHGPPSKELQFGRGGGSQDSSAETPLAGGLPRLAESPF
# Protocol: Functional cAMP activation in the presence of 0.1% casein (no HSA);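 also: intracellular cAMP rise after 30 min at 37 °C, read by HTRF against a cAMP standard curve, scaled from buffer only (0%) to maximal control ligand response (100%)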
# Format: cell-based
# Particulars: in the presence of 0.1% casein (no HSA); geometric mean; read-out: Relative cAMP EC50, hGcgR
Starred links: 1 amine or outer side, 2 acyl side, 3 side chain; linkers in the order of their positions; H or OH if unused. Non-standard residues stand in square brackets, D forms with d. Groups on a side chain read outwards from the residue. No end group written: not given here. *: point of attachment. C20 diacid = O=C(O)CCCCCCCCCCCCCCCCCCC(=O)*; C18 diacid = O=C(O)CCCCCCCCCCCCCCCCC(=O)*; γGlu = O=C(O)[C@H](CCC(=O)[*:2])N[*:1]; NMeY = CN[C@@H](Cc1ccc(O)cc1)C(=O)O; αMe4Pal = C[C@](N)(Cc1ccncc1)C(=O)O; αMeY = C[C@](N)(Cc1ccc(O)cc1)C(=O)O; 4Pal = N[C@@H](Cc1ccncc1)C(=O)O; αMeL = CC(C)C[C@](C)(N)C(=O)O; αMeS = C[C@](N)(CO)C(=O)O; Orn = NCCC[C@H](N)C(=O)O; AEEA = NCCOCCOCC(=O)O; Aib = CC(C)(N)C(=O)O
Please respond with reported EC50 for every item in the list.
Please append the unit to your numeric answer.

Looking for the measured EC50 of H-Y[Aib]QGTFTSDFS[Orn][αMeL]LDKK([AEEA-γGlu-C18 diacid])AQ[Aib]AFIEWLLEGGHSSGEPPPEGS-NH2 [Example 127] , can you help?
4.35 nM

Here is the next substance: H-Y[Aib]QGTFTSD[4Pal]S[Orn][αMeL]LDKK([γGlu-γGlu-γGlu-C18 diacid])AQ[αMe4Pal]AFIEYLIE[Aib]GPSSGAPPPSGS-NH2 [Example 866]
4.48 nM

Next substance: H-Y[Aib]QGTFTSDYSI[αMeL]LDKQAAK([AEEA-AEEA-γGlu-C20 diacid])AFVEWLLA[Aib]GPSSGEPPPSEG-NH2 [Example 317]
2.42 nM

What do you get for H-Y[Aib]QGTFTSD[4Pal]SK[αMeL]LDKK([AEEA-γGlu-C18 diacid])AQ[Aib]AFIEYLIE[dA]GESSGEPPPSGS-NH2 [Example 284] ?
9.21 nM

// same read-out, input: H-Y[Aib]QGTFTSD[4Pal]S[Orn][αMeL]LD[Orn]K([γGlu-γGlu-C18 diacid])AQ[αMe4Pal]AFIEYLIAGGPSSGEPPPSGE-NH2 [Example 983]
4.75 nM

Same for [NMeY][Aib]QGTFTSD[4Pal][αMeS]I[αMeL]LD[Orn]K([dE-γGlu-C18 diacid])AQ[αMe4Pal]QFIQ[αMeY]LIE[Aib]GPSSGAPPPSGGGE-NH2 [Example 1135]
1.76 nM

// repeat for H-Y[Aib]QGTFTSD[4Pal]SQ[αMeL]LDKK([AEEA-γGlu-C18 diacid])AQ[αMe4Pal]AFIE[αMe4Pal]LIEGGPSSGAPPPSGSEE-NH2 [Example 954] and report
3.66 nM

Let us now turn to H-Y[Aib]QGTFTSDFS[Orn][αMeL]LDKK([AEEA-γGlu-C18 diacid])AQ[Aib]AFIEWLLEGGHSSGAPPPEGS-NH2 [Example 126]
6.81 nM

// same read-out, input: H-Y[Aib]QGTFTSD[4Pal]SQ[αMeL]LDKK([γGlu-γGlu-C18 diacid])AQ[αMe4Pal]AFIEYLIE[Aib]GPSSGAPPPSGSEE-NH2 [Example 899]
4.4 nM

What would you report for H-Y[Aib]QGTFTSD[4Pal]SK[αMeL]LDKK([γGlu-γGlu-C18 diacid])AQ[Aib]AFIEYLIE[Aib]GPSSGAPPPSGS-NH2 [Example 907] ?
5.79 nM

And for H-Y[Aib]QGTFTSD[4Pal]SQ[αMeL]LDKK([γGlu-γGlu-C18 diacid])AQ[αMe4Pal]AFIE[αMe4Pal]LIEGGPSSGAPPPSGSEE-NH2 [Example 957] ?
4.18 nM
